- measurementNotes: Protein binding in mice plasma using Rapid Equilibrium Dialysis
- Type: in vitro ADME, CD1 mice
- assaySetup: male, CD1, mouse, plasma, pH 7.4, CD1 mouse plasma, 37° C.
Give measured fraction unbound at 5 h, 1 µM for each item. Keep answers brief.
One number for each entry.

Worked examples, 3 compounds total:
// Cc1nc2cc(C(C)N3CCN(c4ccc(S(C)(=N)=O)cn4)CC3)ccc2s1 (racemic) [Example 46] : fraction unbound at 5 h, 1 µM value = 0.115

For this compound ( CC(c1ccc2c(c1)OCC2)N1CCN(c2ncc(S(C)(=N)=O)cn2)CC1 (racemic) [Example 1] ), measured fraction unbound at 5 h, 1 µM is 0.393

The recorded fraction unbound at 5 h, 1 µM for entry CC(c1ccc2c(c1)OCC2)N1CCN(c2ncc3c(n2)CCS(=N)(=O)C3)CC1 (racemic) [Example 61] equals 0.113

Count: 3. Required value per item: fraction unbound at 5 h, 1 µM.
1. CCCS(=N)(=O)c1cnc(N2CCN(C(C)c3ccc4scnc4c3)CC2)nc1 (racemic) [Example 24]
2. CC(c1ccc2scnc2c1)N1CCN(c2ncc(C(=O)N=S(C)(C)=O)cn2)CC1 (racemic) [Example 32]
3. CN=S(C)(=O)c1ccc(N2CCN(C(C)c3ccc4c(c3)OCC4)CC2)nc1 (single isomer, unassigned) [Example 20]

0.134
0.0535
0.223

Field: fraction unbound at 5 h, 1 µM. Fill in for each record below.
1. CN=S(C)(=O)c1cnc(N2CCN(C(C)c3ccc4c(c3)OCC4)CC2)nc1 (racemic) [Example 8]
2. CCS(=N)(=O)c1ccc(N2CCN(C(C)c3ccc4c(c3)OCC4)CC2)nc1 (racemic) [Example 6]

0.234
0.261
